System: THP-1
testDescription: cell viability (% survival relative to DMSO control, bortezomib = 0%); higher = less cytotoxic
cond: 1000 nM; 72 h
Listing of entries alongside the reported cell viability.
quantityMeasured: cell viability (%)

CCOC(=O)[C@@]1(CCCCCCOc2ccc(Cl)cc2)CO1 [Etomoxir]; 96.4
Cc1c(-c2ccccc2)oc2c(C(=O)OCCN3CCCCC3)cccc2c1=O.Cl [Flavoxate]; 96.6
C#Cc1cnc(O)nc1O [Eniluracil]; 110
CCOC(=O)[C@H]1O[C@@H]1C(=O)N[C@@H](CC(C)C)C(=O)NCCC(C)C [Aloxistatin]; 95.2
CN(C/C=C/C#CC(C)(C)C)Cc1cccc2ccccc12 [Terbinafine]; 100
Cl.OC[C@H]1NC[C@@H](O)[C@@H](O)[C@@H]1O [1-Deoxymannojirimycin hydrochloride]; 102
CCN(CC)CCN(Cc1ccc(-c2ccc(C(F)(F)F)cc2)cc1)C(=O)Cn1c(SCc2ccc(F)cc2)nc(=O)c2c1CCC2 [Darapladib]; 96.3
[N-]=[N+]=CC(=O)CC[C@H](N)C(=O)O [6-Diazo-5-oxo-L-norleucine]; 102
Sc1ncnc2nc[nH]c12 [6-mercaptopurine]; 90.6
